Assay: Metabolic stability in mouse liver microsomes
Format: ADME, Microsome
Each record is given true (1) if its reported Stability is strictly below 20 pmol/min/mg. Records at or above 20 pmol/min/mg are given false (0).

>>> group("Nc1nc2c(c(N3CCNCC3)n1)CCCc1ccccc1-2")
"true (1)"
>>> group("N#Cc1ccc(-c2cc(N3CCNCC3)nc(N)n2)cc1")
"false (0)"
>>> group("Nc1nc2c(c(N3CCNCC3)n1)CCCCC2c1ccccc1 (stereo unspecified)")
"true (1)"
>>> group("CN[C@@H]1CCN(c2nc(N)nc3c2CCCc2ccccc2-3)C1")
"false (0)"
>>> group("CN1CCN(C(=O)c2cc3cc(Cl)ccc3[nH]2)CC1 [JNJ-7777120]")
"false (0)"
>>> group("Nc1nc2c(c(N3CCNCC3)n1)Cc1ccccc1-2")
"false (0)"
